- target under test: Histone deacetylase (Homo sapiens) (UniProt Q13547+O15379+Q9UBN7+Q92769+Q9UQL6+Q8WUI4+Q9BY41+Q96DB2+P56524+Q9UKV0+Q969S8)
- assay text: Inhibition of HDAC (unknown origin) at 0.1 uM
- Format: protein assay
Kindly return 1 if reported inhibition is no lower than 60%; return -1 if it is lower.

# structure smiles string, classification
data = [
    ("N[C@H](C(=O)Nc1ccc2cc(C(=O)NO)sc2c1)c1ccccc1", 1),
    ("COc1cccc(CC(=O)Nc2ccc3cc(C(=O)NO)sc3c2)c1", 1),
    ("O=C(NO)c1cc2ccc(COc3ccccc3F)cc2s1", -1),
    ("O=C(NO)c1cc2ccc(NCCc3ccccc3)cc2s1", -1),
    ("O=C(Cc1cccnc1)Nc1ccc2cc(C(=O)NO)sc2c1", 1),
    ("O=C(NO)c1cc2ccc(NCc3ccccc3)cc2s1", -1),
    ("COc1ccc(CC(=O)Nc2ccc3cc(C(=O)NO)sc3c2)cc1", 1),
    ("O=C(NO)c1cc2cc(NCCc3ccccc3)ccc2s1", -1),
    ("O=C(Cc1ccsc1)Nc1ccc2cc(C(=O)NO)sc2c1", 1),
    ("CN(C)CCCC(=O)Nc1ccc2cc(C(=O)NO)sc2c1", -1),
    ("O=C(NCc1ccc2cc(C(=O)NO)sc2c1)c1cccnc1", 1),
]
